Species on record: Mus musculus
test.protocol: Compound was tested for the immunomodulatory activity in vitro expressed as stimulation index by mixed lymphocyte reaction at 1 ug/mL
Type: functional
Non-standard residues stand in square brackets, D forms with d. Residues, ends and D or L forms follow the SMILES beside them. Ac5c = NC1(C(=O)O)CCCC1; GABA = NCCCC(=O)O
Label MET when Stimulation index is at or above 0.9; anything below gets NOT MET.

[
  {
    "molecule": "CC[C@H](C)[C@H](NC(=O)CCCNC(=O)[C@@H](N)C(C)C)C(=O)N1CCC[C@H]1C(=O)N[C@@H](Cc1ccc(O)cc1)C(=O)O (H-V[GABA]IPY-OH)",
    "cat": "NOT MET"
  },
  {
    "molecule": "CC[C@@H](C)[C@@H](NC(=O)[C@@H]1CCCN1C(=O)[C@@H](CCC(=O)O)NC(=O)[C@H](C)N)C(=O)N1CCC[C@H]1C(=O)N[C@H](Cc1ccc(O)cc1)C(=O)O",
    "cat": "NOT MET"
  },
  {
    "molecule": "CC[C@H](C)[C@H](NC(=O)CNC(=O)CNC(=O)[C@@H](N)C(C)C)C(=O)N1CCC[C@H]1C(=O)N[C@@H](Cc1ccc(O)cc1)C(=O)O (H-VGGIPY-OH)",
    "cat": "MET"
  },
  {
    "molecule": "CC[C@H](C)[C@H](NC(=O)C1(NC(=O)[C@H](CCC(=O)O)NC(=O)[C@@H](N)C(C)C)CCCC1)C(=O)N1CCC[C@H]1C(=O)N[C@@H](Cc1ccc(O)cc1)C(=O)O (H-VE[Ac5c]IPY-OH)",
    "cat": "NOT MET"
  }
]

From: ChEMBL document CHEMBL1130743
